Biological target: 5-HT2A (Mus musculus, UniProt P35363)
Construct: endogenous in cells; host or cells: immortalized murine brown adipocytes (differentiated)
Sequence (P35363 whole entry): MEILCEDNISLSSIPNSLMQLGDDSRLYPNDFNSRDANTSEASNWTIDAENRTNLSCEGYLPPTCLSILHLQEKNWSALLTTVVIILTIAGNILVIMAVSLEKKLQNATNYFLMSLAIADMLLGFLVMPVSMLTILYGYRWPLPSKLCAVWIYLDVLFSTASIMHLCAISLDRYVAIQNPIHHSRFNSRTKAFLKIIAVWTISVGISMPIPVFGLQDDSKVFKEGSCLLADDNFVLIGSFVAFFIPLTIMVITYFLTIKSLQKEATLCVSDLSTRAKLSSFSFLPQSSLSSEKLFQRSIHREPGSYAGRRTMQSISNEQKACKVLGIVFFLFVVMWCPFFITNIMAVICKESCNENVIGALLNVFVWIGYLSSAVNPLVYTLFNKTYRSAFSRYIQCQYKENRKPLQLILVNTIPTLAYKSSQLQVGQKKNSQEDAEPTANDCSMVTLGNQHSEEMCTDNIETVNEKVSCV
Assay: Fluo-4 Ca2+ signals in brown adipocytes
Type: cell-based
Conditions: pre-treatment with antagonist
Counter-ions that a name gives are not always drawn.

{"Compound": "N#Cc1c[nH]c2c(C(=O)N3CCN(CCc4ccc(F)cc4)CC3)cccc12", "Target Of Assay": "5-HT2A (Mus musculus, UniProt P35363)", "5-HT induced Ca2+ transients": "attenuated"}
{"Compound": "COc1cccc(CCc2ccccc2OCC(CN(C)C)OC(=O)CCC(=O)O)c1 (stereo not shown) [Sarpogrelate hydrochloride]", "Target Of Assay": "5-HT2A (Mus musculus, UniProt P35363)", "5-HT induced Ca2+ transients": "attenuated"}
{"Compound": "COc1cccc([C@H](O)C2CCN(CCc3ccc(F)cc3)CC2)c1OC", "Target Of Assay": "5-HT2A (Mus musculus, UniProt P35363)", "5-HT induced Ca2+ transients": "attenuated"}
{"Compound": "COc1cccc(OC(C)CNC(=N)Cc2cccc(C)c2)c1.Cc1ccc(S(=O)(=O)O)cc1 (stereo not shown) [xylamidine tosylate]", "Target Of Assay": "5-HT2A (Mus musculus, UniProt P35363)", "5-HT induced Ca2+ transients": "attenuated"}
